Assign Pre-emerge phytotoxicity rating (0-100), crop damage, CORN to each entry below.
Tested on: field corn (Zea mays L., var. Dekalb 535, CORN)
Assay: Pre-emerge test, crop safety
Type: in vivo
Conditions: 250 g ai/ha; rated 14 days after application; 0 = no damage, 100 = complete death
Would you mind answering with just the numeric figure?

Field request: Pre-emerge phytotoxicity rating (0-100), crop damage, CORN | item: COc1c(Cl)cc(F)c(-n2c(=O)cc(C(F)(F)F)n(C)c2=O)c1NC(=O)C=Cc1ccc(Cl)cc1 [2-84]
0

Field request: Pre-emerge phytotoxicity rating (0-100), crop damage, CORN | item: COc1c(Cl)cc(F)c(-n2c(=O)cc(C(F)(F)F)n(C)c2=O)c1NC(=O)c1cccc2ccccc12 [2-74]
15

Field request: Pre-emerge phytotoxicity rating (0-100), crop damage, CORN | item: Cn1c(C(F)(F)F)cc(=O)n(-c2c(F)cc(Cl)c(OCC#N)c2NC(=O)CCc2ccccc2)c1=O [2-87]
75

Field request: Pre-emerge phytotoxicity rating (0-100), crop damage, CORN | item: COc1c(Cl)cc(F)c(-n2c(=O)cc(C(F)(F)F)n(C)c2=O)c1NC(=O)c1ccc(I)cc1 [2-66]
15

Field request: Pre-emerge phytotoxicity rating (0-100), crop damage, CORN | item: COc1c(Cl)cc(F)c(-n2c(=O)cc(C(F)(F)F)n(C)c2=O)c1NC(=O)c1ccc(C(F)(F)F)cc1 [2-33]
90

Field request: Pre-emerge phytotoxicity rating (0-100), crop damage, CORN | item: COc1c(Cl)cc(F)c(-n2c(=O)cc(C(F)(F)F)n(C)c2=O)c1NC(=O)C=Cc1ccccc1Cl [2-82]
0

Field request: Pre-emerge phytotoxicity rating (0-100), crop damage, CORN | item: COc1c(Cl)cc(F)c(-n2c(=O)cc(C(F)(F)F)n(C)c2=O)c1NC(=O)C(=O)c1ccccc1 [2-121]
10

Field request: Pre-emerge phytotoxicity rating (0-100), crop damage, CORN | item: COc1c(Cl)cc(F)c(-n2c(=O)cc(C(F)(F)F)n(C)c2=O)c1NC(=O)C(C)=Cc1ccccc1 [2-81]
90

Field request: Pre-emerge phytotoxicity rating (0-100), crop damage, CORN | item: COc1c(Cl)cc(F)c(-n2c(=O)cc(C(F)(F)F)n(C)c2=O)c1N(C(=O)COc1ccccc1)C(=O)COc1ccccc1 [2-120]
90

Field request: Pre-emerge phytotoxicity rating (0-100), crop damage, CORN | item: COc1c(Cl)cc(F)c(-n2c(=O)cc(C(F)(F)F)n(C)c2=O)c1NC(=O)c1ccc(C#N)cc1 [2-67]
99

Field request: Pre-emerge phytotoxicity rating (0-100), crop damage, CORN | item: COc1c(Cl)cc(F)c(-n2c(=O)cc(C(F)(F)F)n(C)c2=O)c1NC(=O)c1ccccc1Cl [2-53]
90

Field request: Pre-emerge phytotoxicity rating (0-100), crop damage, CORN | item: Cn1c(C(F)(F)F)cc(=O)n(-c2c(F)cc(Cl)c(O)c2NC(=O)c2ncccn2)c1=O [2-102]
0

Field request: Pre-emerge phytotoxicity rating (0-100), crop damage, CORN | item: Cn1c(C(F)(F)F)cc(=O)n(-c2c(F)cc(Cl)c(OCC#N)c2N(C(=O)c2ccc(F)cc2F)C(=O)c2ccc(F)cc2F)c1=O [2-45]
0

Field request: Pre-emerge phytotoxicity rating (0-100), crop damage, CORN | item: COc1c(Cl)cc(F)c(-n2c(=O)cc(C(F)(F)F)n(N)c2=O)c1NC(=O)c1ccc2ccccc2c1 [2-77]
0

Field request: Pre-emerge phytotoxicity rating (0-100), crop damage, CORN | item: CCOc1ccc(C(=O)Nc2c(OC)c(Cl)cc(F)c2-n2c(=O)cc(C(F)(F)F)n(C)c2=O)cc1 [2-64]
35

Field request: Pre-emerge phytotoxicity rating (0-100), crop damage, CORN | item: COc1c(Cl)cc(F)c(-n2c(=S)cc(C(F)(F)F)n(C)c2=O)c1NC(=S)c1ccc(F)cc1F [2-46]
90

Field request: Pre-emerge phytotoxicity rating (0-100), crop damage, CORN | item: COc1c(Cl)cc(F)c(-n2c(=O)cc(C(F)(F)F)n(C)c2=O)c1N(C(=O)c1ccc(F)c(F)c1)C(=O)c1ccc(F)c(F)c1 [2-49]
15

Field request: Pre-emerge phytotoxicity rating (0-100), crop damage, CORN | item: COc1c(Cl)cc(F)c(-n2c(=O)cc(C(F)(F)F)n(C)c2=O)c1NC(=O)c1ccc(Cl)cc1 [2-56]
95

Field request: Pre-emerge phytotoxicity rating (0-100), crop damage, CORN | item: COc1c(Cl)cc(F)c(-n2c(=O)cc(C(F)(F)F)n(C)c2=O)c1NC(=O)C=Cc1ccco1 [2-92]
20

Field request: Pre-emerge phytotoxicity rating (0-100), crop damage, CORN | item: COc1c(Cl)cc(F)c(-n2c(=O)cc(C(F)(F)F)n(C)c2=O)c1NC(=O)c1cnc2ccccc2n1 [2-105]
10

Field request: Pre-emerge phytotoxicity rating (0-100), crop damage, CORN | item: COc1c(Cl)cc(F)c(-n2c(=O)cc(C(F)(F)F)n(C)c2=O)c1NC(=O)c1ccc(F)c(F)c1 [2-48]
99

Field request: Pre-emerge phytotoxicity rating (0-100), crop damage, CORN | item: COc1c(Cl)cc(F)c(-n2c(=O)cc(C(F)(F)F)n(C)c2=O)c1NC(=O)CCc1ccccc1 [2-86]
99

Field request: Pre-emerge phytotoxicity rating (0-100), crop damage, CORN | item: COc1c(Cl)cc(F)c(-n2c(=O)cc(C(F)(F)F)n(C)c2=O)c1NC(=O)c1ccc(C)c(C)c1 [2-32]
95

Field request: Pre-emerge phytotoxicity rating (0-100), crop damage, CORN | item: COc1c(Cl)cc(F)c(-n2c(=O)cc(C(F)(F)F)n(C)c2=O)c1NC(=O)c1ccc(F)cc1 [2-40]
95

Field request: Pre-emerge phytotoxicity rating (0-100), crop damage, CORN | item: COc1c(Cl)cc(F)c(-n2c(=O)cc(C(F)(F)F)n(C)c2=O)c1NC(=O)c1ccc(-c2ccccc2)cc1 [2-37]
0

Field request: Pre-emerge phytotoxicity rating (0-100), crop damage, CORN | item: COc1c(Cl)cc(F)c(-n2c(=O)cc(C(F)(F)F)n(C)c2=O)c1NC(=O)c1cccc(F)c1F [2-41]
95

Field request: Pre-emerge phytotoxicity rating (0-100), crop damage, CORN | item: COc1c(Cl)cc(F)c(-n2c(=O)cc(C(F)(F)F)n(C)c2=O)c1N(C(=O)c1ccc(Cl)nc1)C(=O)c1ccc(Cl)nc1 [2-100]
95

Field request: Pre-emerge phytotoxicity rating (0-100), crop damage, CORN | item: COc1c(Cl)cc(F)c(-n2c(=O)cc(C(F)(F)F)n(C)c2=O)c1NC(=O)COC(C)=O [2-117]
35

Field request: Pre-emerge phytotoxicity rating (0-100), crop damage, CORN | item: COc1c(Cl)cc(F)c(-n2c(=O)cc(C(F)(F)F)n(C)c2=O)c1NC(=O)c1ccccc1F [2-39]
95

Field request: Pre-emerge phytotoxicity rating (0-100), crop damage, CORN | item: COc1c(Cl)cc(F)c(-n2c(=O)cc(C(F)(F)F)n(C)c2=O)c1NC(=O)c1ccc(F)cc1F [Compound 2-42]
98
